measurementTarget: Fuc(a1-3)GlcNAc
assayProcedure: glycan array binding signal (z-score within array); higher = stronger binding
condition: glycan notation: IUPAC condensed, linker removed
About 410 targets per protein were measured; listed, in parts, are those with the strongest signals and a random draw of the rest.
glycan array binding signal (z-score) reference
Form field (numeric): enter value without unit.

Below are worked cases with known answers.
SBD (Rhizopus oryzae), P07683 (protein) ASIPSSASVQLDSYNYDGSTFSGKIYVKNIAYSKKVTVVYADGSDNWNNNGNIIAASFSGPISGSNYEYWTFSASVKGIKEFYIKYEVSGKTYYDNNNSANYQVS	0.165
FaeGac (Escherichia coli) (protein) WMTGDFNGSVDIGGSITADDYRQKWEWKVGTGLNGFGNVLNDLTNGGTKLTITVTGNKPILLGRTKEAFATPVTGGVDGIPHIAFTDYEGASVVLRNPDGETNKKGLAYFVLPMKNAEGTKVGSVKVNASYAGVLGRGGVTSADGELLSLFADGLSSIFYGGLPRGSELSAGSAAAERTKLFGSLSRNDILGQIQRVNANITSLVDVAGSYRENMEYTDGTVVSAAYALGIANGQTIEATFNQAVTTSTQWSAPLNVAITYY	0.65
Pbx2CASH domain (Cryptococcus neoformans) (protein) GIPGPNRLYRLSGPIIFTAADQEIATYGYPTGSERAVLRVEGRNTATAIQGDCRRCARVSVKNLVVDGNRKKLGRMRDFQLATGLVVLGGNEGQSIQNSWIKNPRGFTAIHIREGDKLQCSGARVEKNEIGPVGEEYDPEKDGDDPEMSPLGRPLADGVSIACRDSFIRDNTFRDNTDAAIVVYCSPGTLIHA	-0.751
AFL (Aspergillus fumigatus), Q4WW81 (protein) STPGAQQVLFRTGIAAVNLTNHLRVYFQDVYGSIRESLYEGSWANGTEKNVIGNAKLGSPVAATSKELKHIRVYTLTEGNTLQEFAYDSGTGWYNGGLGGAKFQVAPYSRIAAVFLAGTDALQLRIYAQKPDNTIQEYMWNGDGWKEGTNLGGALPGTGIGATSFRYTDYNGPSIRIWFQTDDLKLVQRAYDPHKGWYPDLVTIFDRAPPRTAIAATSFGAGNSSIYMRIYFVNSDNTIWQVCWDHGKGYHDKGTITPVIQGSEVAIISWGSFANNGPDLRLYFQNGTYISAVSEWVWNRAHGSQLGRSALPPA	3.8
NakA (Mycobacterium tuberculosum) (protein) SVVKPTKVTVFSPDGGADNPGEADLAIDGNPATSWKTDIYTDPVPFPSFKNGVGLMLQLPQATVVGTVAIDVASTGTKVEIRSASTPTPATLEDTAVLTSATALRPGHNTISVEAAAPTSNLLVWISTLGTTDGKSQADISEITIYAASD	3.17

For the next question, use this binder.
IN: # glycan array binding signal (z-score) lookup, item TES70 (Toxocara canis), Q9XYV5 (protein) MISVVLVAIALQISGSYAGACNSINDCGLFETCVNNMCVPDNMGCPMPCQAGQVCVPPNCVAAPAPQPVTTTTAAATTTTSARGRCNANAQCGAFEVCVNGMCQPNNAGCNPPCAANQVCVAPNCVPAPIPPPAQSTTTAPATTRAPPSCPPSWSPFSGHCYYVAVGSFLFNQASDWCTQTNSRPVWFDQSNVGTFGAELYFINVLAASRGVQTYWLGLNRQFGQWVWTNGSPLIFSNWRGSEPDGCCGGNVTCALVNYANPFGQWDDAGCGNIWRNPQGFICKKPLA
OUT: -0.169
